tested-target: human recombinant ATX (Homo sapiens (Human))
test-protocol: Autotaxin (ATX) activity Quanta Red assay
test-settings: 15 μM Rac-1-Palmitoyl-glycero-3-phosphocholine, 2 hours room temperature, determined in duplicate
observation-type: IC50 (nM)

1. O=C(NC1CC(=O)N(c2ccc(CN3CCCCC3)cc2)C1)c1cc(CCc2ccccc2)no1 (centres unmarked) [Compound F198] = 989

[A] CC1CCN(Cc2ccc(N3CC(NC(=O)c4nnc(CCc5ccc(Cl)cc5)s4)CC3=O)cc2)CC1 (centres unmarked) [Compound F136]
[B] O=C(Nc1nnc(CCc2ccc(Cl)cc2)s1)C1CC(=O)N(c2ccc(CN3CCCCC3)cc2)C1 (centres unmarked) [Compound F99]
// select label with min value of measured IC50 from [ A , B ] # reply format: chosen label
B
